Target: Rap guanine nucleotide exchange factor 3 (Homo sapiens) (UniProt O95398)
Sequence (O95398 whole entry, looked up): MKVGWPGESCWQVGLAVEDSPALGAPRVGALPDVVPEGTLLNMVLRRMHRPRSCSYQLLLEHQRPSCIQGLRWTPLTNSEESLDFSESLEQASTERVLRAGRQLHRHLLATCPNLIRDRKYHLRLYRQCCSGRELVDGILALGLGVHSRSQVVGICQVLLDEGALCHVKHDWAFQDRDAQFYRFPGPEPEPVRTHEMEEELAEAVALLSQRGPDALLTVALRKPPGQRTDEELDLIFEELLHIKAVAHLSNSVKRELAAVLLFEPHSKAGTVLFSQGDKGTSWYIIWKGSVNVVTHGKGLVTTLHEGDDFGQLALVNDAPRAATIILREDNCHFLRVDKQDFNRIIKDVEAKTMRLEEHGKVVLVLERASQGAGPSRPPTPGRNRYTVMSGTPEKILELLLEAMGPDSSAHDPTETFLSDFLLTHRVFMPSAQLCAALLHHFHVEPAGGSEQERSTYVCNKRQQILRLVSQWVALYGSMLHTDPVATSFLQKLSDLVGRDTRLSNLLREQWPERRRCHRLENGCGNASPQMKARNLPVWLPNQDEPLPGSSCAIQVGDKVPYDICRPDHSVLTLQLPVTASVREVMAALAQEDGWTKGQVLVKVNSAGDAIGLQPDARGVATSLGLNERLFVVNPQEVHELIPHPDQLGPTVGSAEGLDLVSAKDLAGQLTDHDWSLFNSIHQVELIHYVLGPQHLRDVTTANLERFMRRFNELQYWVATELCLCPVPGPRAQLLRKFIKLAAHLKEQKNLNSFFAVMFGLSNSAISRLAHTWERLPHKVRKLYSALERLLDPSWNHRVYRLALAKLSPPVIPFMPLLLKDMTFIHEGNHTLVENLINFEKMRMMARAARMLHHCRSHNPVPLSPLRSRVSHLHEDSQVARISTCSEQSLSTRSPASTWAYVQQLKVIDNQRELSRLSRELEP
Test: Confirmatory qHTS for agonist of cAMP-regulated guanine nucleotide exchange factor 3 (EPAC1) (AID 1645881); note: nearly all actives have a fitted effect of over 75% in size;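 for activation: EPAC1 catalysed release of BODIPY-GDP from Rap1B seen as fluorescence loss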
Details: EPAC1 Rap1B BODIPY-GDP exchange fluorescence; series mostly up to 154 µM
Results filed as inconclusive are left out. Activity calls are given as the source filed them. Calls come from the whole dose curve; as a rule, active = well fitted activation curve with a large enough effect; inconclusive = small, poorly fitted or top-dose-only effect; inactive = no such curve, though single readings can be large or run the other way.
Would you mind answering with one of these outcomes? active, inactive

# count of solved cases: 5
INSERT INTO assay_data (molecule, experimental_target, cat) VALUES
  ('COc1ccc(CCNC(=O)CSc2nc(N)c(C#N)c(-c3cccs3)c2C#N)cc1OC', 'Rap guanine nucleotide exchange factor 3 (Homo sapiens) (UniProt O95398)', 'inactive'),
  ('O=C(OCC(=O)N1CCCC1=O)c1cc(Cl)ccc1O', 'Rap guanine nucleotide exchange factor 3 (Homo sapiens) (UniProt O95398)', 'inactive'),
  ('COc1ccc(/C=C/C(=O)c2ccncc2)c2ccccc12', 'Rap guanine nucleotide exchange factor 3 (Homo sapiens) (UniProt O95398)', 'inactive'),
  ('CC(=O)C(C(c1ccccc1)c1c[nH]c2ccccc12)[N+](=O)[O-] (stereo not drawn)', 'Rap guanine nucleotide exchange factor 3 (Homo sapiens) (UniProt O95398)', 'inactive'),
  ('CC1C/C(=C/c2cccn2C)C(=O)/C(=C/c2cccn2C)C1 (stereo not drawn)', 'Rap guanine nucleotide exchange factor 3 (Homo sapiens) (UniProt O95398)', 'inactive');

Test call, this molecule: CCc1nnc(NS(=O)(=O)c2ccc(Nc3ccc([N+](=O)[O-])c4nonc34)cc2)s1 inactive

# outcome recorded in this test, key = COc1ccc(S(=O)(=O)N2CCOC23CCN(S(=O)(=O)c2ccc(F)cc2C)CC3)cc1 inactive

Entry COc1cc(OC)nc(Oc2cc(/C=N/O)ccc2OC)n1 : call = ? inactive

Hey, what did the test say about O=C1C=CC(=O)c2c(O)c(N3CCN(CCOCCO)CC3)c(Br)c(O)c21 ? inactive

Outcome? CCC1CCCCN1CCCNC(=O)CCC(=O)N1CC(C)Oc2ccccc21 (stereo not drawn) inactive

// outcome(item) with item = CCOC(=O)C1=C(CSc2nc3ccccc3s2)NC(=O)NC1c1ccc(OC)cc1 (stereo not drawn) inactive

For CCN1/C(=C/c2ccc3cc(C)ccc3[n+]2CC)Sc2ccccc21 , what call appears in the results of this test? inactive

Call for entry COCCN(CCOC)Cc1cc(=O)oc2cc(C)c(C)cc12 : inactive

What classification did C=CCn1c(O)c(N=NC(=O)CNC(=O)/C=C/c2ccc(OC)cc2)c2ccccc21 end up with in this test? inactive

Test call, this molecule: Clc1cccc(Cl)c1C1Nc2cccc3cccc(c23)N1 inactive

What did this assay record as the result for CCOC(=O)c1cc2n(c1N)-c1ccccc1C2=O ? active

In this assay, the call recorded for O=C(CCSc1nc2ccccc2o1)N1CCOCC1 was what? inactive

Called result for CCCc1cc2c(cc1N(C)S(=O)(=O)c1ccccc1)OCO2 inactive

Could you please tell me the result logged for Cc1ccc(C2(C)NC(=O)N(CC(=O)Nc3ccccc3N3CCCCC3)C2=O)cc1 (stereo not drawn) in this assay? inactive

Recorded test outcome, item O=C(CSCC(=O)N1CCOCC1)Nc1nc(-c2ccccc2)cs1 inactive

Record request — test call for COC(=O)c1ccc2nc(-c3ccccc3)c(Cc3ccc(C)cc3)n2c1 inactive

Hi, do you know how COCCCn1c(=N)c(C(=O)NCc2cccnc2)cc2c(=O)n3cc(C)ccc3nc21 came out in this test? inactive

src = PubChem BioAssay (NCATS)
